# System: human CB2 receptors (Homo sapiens, UniProt P34972)
# Construct: expressed in transfected cells; host or cells: HEK293
# Sequence (P34972 whole entry): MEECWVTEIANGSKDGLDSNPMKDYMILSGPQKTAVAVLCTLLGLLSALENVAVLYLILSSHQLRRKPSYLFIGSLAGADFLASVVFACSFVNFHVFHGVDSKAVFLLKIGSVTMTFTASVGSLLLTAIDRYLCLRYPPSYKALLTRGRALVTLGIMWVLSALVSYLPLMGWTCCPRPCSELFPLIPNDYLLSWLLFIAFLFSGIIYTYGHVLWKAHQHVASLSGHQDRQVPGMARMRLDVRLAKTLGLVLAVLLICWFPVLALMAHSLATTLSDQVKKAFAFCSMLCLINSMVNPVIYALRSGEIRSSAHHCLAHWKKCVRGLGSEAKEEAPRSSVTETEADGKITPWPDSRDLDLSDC
# Assay: Human CB2 radioligand binding assay ([3H]CP-55,940 competition)
# Condition summary: HEK293 membranes, 0.5 nM [3H]CP-55,940; read-out: human CB2 Ki

| Compound | Result unit | Ki |
| --- | --- | --- |
| CN1CC[C@H](Oc2ccc(C(F)(F)F)cc2C(=O)/N=c2\oc(C(C)(C)C)cn2C[C@H]2CCCO2)C1 [Example 98] | nM | 261 |
| COc1ccc(Cl)cc1C(=O)/N=c1\ccc(C)cn1CC1CCCO1 (stereo not shown) [Example 10] | nM | 360 |
| Cn1c(C(C)(C)C)c/c(=N\C(=O)c2cc(C(F)(F)F)ccc2O)n1C[C@H]1CCCO1 [Example 24] | nM | 260 |
| COc1ccc(C#N)cc1C(=O)/N=c1\cc(C(C)(C)C)n(C)n1C[C@H]1CCCO1 [Example 48] | nM | 143 |
| Cn1c(C(C)(C)C)c/c(=N\C(=O)c2cc(C(F)(F)F)ccc2OCC2CC(=O)C2)n1C[C@H]1CCCO1 [Example 17] | nM | 230 |
| Cn1c(C(C)(C)C)c/c(=N\C(=O)c2cc([N+](=O)[O-])cc(C(F)(F)F)c2)n1C[C@H]1CCCO1 [Example 106] | nM | 168 |
| COc1c(F)cc(F)cc1C(=O)/N=c1\cc(C(C)(C)C)n(C)n1C[C@H]1CCCO1 [Example 55] | nM | 152 |
| CCOc1ccccc1C(=O)/N=c1\sc(C2CC2)nn1CC1CCCO1 (stereo not shown) [Example 3] | nM | 114 |
| COc1ccc(Cl)cc1C(=O)/N=c1\sc(C(C)(C)C)nn1C[C@H]1COC(=O)N1 [Example 91] | nM | 203 |
| COc1ccc(Cl)cc1C(=O)/N=c1\cc(C(C)(C)C)ccn1C[C@H]1CCCO1 [Example 61] | nM | 103 |

* * *

Items are presented alongside their recorded pKi.
# System: human CB2 receptors (Homo sapiens, UniProt P34972)
# Construct: expressed in transfected cells; host or cells: HEK293
# Assay: Human CB2 radioligand binding assay ([3H]CP-55,940 competition)
pKi: −log10 of the molar value.
Readout: pKi

| Compound structure | Readout | Reported value |
| --- | --- | --- |
| CCOC(=O)CCc1ccc(C(F)(F)F)cc1C(=O)/N=c1\cc(C(C)(C)C)n(C)n1C[C@H]1CCCO1 | pKi | 7.64 |
| COc1ccc(Br)cc1C(=O)/N=c1\cc(C(C)(C)C)n(C)n1C[C@H]1CCCO1 | pKi | 7.25 |
| CCOCCOc1ccc(C(F)(F)F)cc1C(=O)/N=c1\cc(C(C)(C)C)n(C)n1C[C@H]1CCCO1 | pKi | 7.96 |
| Cn1c(C(C)(C)C)c/c(=N\C(=O)c2cc(C(F)(F)F)ccc2OCC2CC(F)(F)C2)n1C[C@H]1CCCO1 | pKi | 7.66 |
| CO[C@H]1C[C@@H](COc2ccc(C(F)(F)F)cc2C(=O)/N=c2\cc(C(C)(C)C)n(C)n2C[C@H]2CCCO2)C1 | pKi | 7.29 |
| COc1ccc(Cl)cc1C(=O)/N=c1\sc(C2(C)CC2)nn1C[C@H]1CCCO1 | pKi | 8.04 |
| COCCNc1ccc(C(F)(F)F)cc1C(=O)/N=c1\cc(C(C)(C)C)n(C)n1C[C@H]1CCCO1 | pKi | 7.96 |
| COCCOc1ccc(C(F)(F)F)cc1C(=O)/N=c1\cc(C(C)(C)C)n(C)n1C[C@H]1CCCO1 | pKi | 7.52 |
| Cn1c(C(C)(C)C)c/c(=N\C(=O)c2cc([N+](=O)[O-])ccc2F)n1C[C@H]1CCCO1 | pKi | 8.07 |
| COc1ccc(Cl)cc1C(=O)/N=c1\sc(C(C)(C)C)nn1C[C@H]1CCCO1 | pKi | 8.16 |
| CC(C)CS(=O)(=O)Nc1ccc(C(F)(F)F)cc1C(=O)/N=c1\cc(C(C)(C)C)n(C)n1C[C@H]1CCCO1 | pKi | 7.49 |
| COc1ccc(Cl)cc1C(=O)/N=c1\sc(C2(C(F)(F)F)CC2)nn1C[C@H]1CCCO1 | pKi | 7.29 |
| Cn1c(C(C)(C)C)c/c(=N\C(=O)c2cc(C(F)(F)F)ccc2Cl)n1C[C@H]1CCCO1 | pKi | 7.77 |
| C#CC(C)(C)c1nn(C[C@H]2CCCO2)/c(=N/C(=O)c2cc(Cl)ccc2OC)s1 | pKi | 7.70 |
| Cn1c(C(C)(C)C)c/c(=N\C(=O)c2cc(C(F)(F)F)ccc2/C=N\OC(C)(C)C)n1C[C@H]1CCCO1 | pKi | 7.64 |

* * *

# System: human CB2 receptors (Homo sapiens)
# Construct: expressed in transfected cells; host or cells: HEK293
# Assay: Human CB2 radioligand binding assay ([3H]CP-55,940 competition)
Readout: log10 of Ki (log10 of the value in nM)

| Compound | System | Readout | Reported value |
| --- | --- | --- | --- |
| Cn1c(C(C)(C)C)c/c(=N\C(=O)c2cc(C(F)(F)F)ccc2NC(=O)OC(C)(C)C)n1C[C@H]1CCCO1 | human CB2 receptors (Homo sapiens) | log10 of Ki | 0.23 |
| Cn1c(C(C)(C)C)c/c(=N\C(=O)c2cc(Br)ccc2OCCF)n1C[C@H]1CCCO1 | human CB2 receptors (Homo sapiens) | log10 of Ki | 1.45 |
| Cn1c(C(C)(C)C)c/c(=N\C(=O)c2cc(C(F)(F)F)ccc2OCC(F)F)n1C[C@H]1CCCO1 | human CB2 receptors (Homo sapiens) | log10 of Ki | 1.23 |
| COc1ccc(C(F)(F)F)cc1C(=O)/N=c1\cc(C(C)(C)C)n(C)n1CC1CC[C@H](C)O1 (some centres unmarked) | human CB2 receptors (Homo sapiens) | log10 of Ki | 1.81 |
| CC(CF)Oc1ccc(C(F)(F)F)cc1C(=O)/N=c1\cc(C(C)(C)C)n(C)n1C[C@H]1CCCO1 (some centres unmarked) | human CB2 receptors (Homo sapiens) | log10 of Ki | 2.14 |
| COc1ccc(Cl)cc1C(=O)/N=c1\cc(C(C)(C)C)on1C[C@H]1CCCO1 | human CB2 receptors (Homo sapiens) | log10 of Ki | 0.68 |
| CC1CCC(NC(=O)/N=c2\sc(C(C)(C)C)nn2C[C@H]2CCCO2)CC1 (some centres unmarked) | human CB2 receptors (Homo sapiens) | log10 of Ki | 1.20 |
| COc1ccc(Cl)cc1C(=O)/N=c1\sc(C(C)(C)C(F)(F)F)nn1C[C@H]1CCCO1 | human CB2 receptors (Homo sapiens) | log10 of Ki | 1.52 |

* * *

# System: rat CB2 receptors (Rattus norvegicus, UniProt Q9QZN9)
# Construct: expressed in transfected cells; host or cells: HEK293
# Sequence (Q9QZN9 1-360): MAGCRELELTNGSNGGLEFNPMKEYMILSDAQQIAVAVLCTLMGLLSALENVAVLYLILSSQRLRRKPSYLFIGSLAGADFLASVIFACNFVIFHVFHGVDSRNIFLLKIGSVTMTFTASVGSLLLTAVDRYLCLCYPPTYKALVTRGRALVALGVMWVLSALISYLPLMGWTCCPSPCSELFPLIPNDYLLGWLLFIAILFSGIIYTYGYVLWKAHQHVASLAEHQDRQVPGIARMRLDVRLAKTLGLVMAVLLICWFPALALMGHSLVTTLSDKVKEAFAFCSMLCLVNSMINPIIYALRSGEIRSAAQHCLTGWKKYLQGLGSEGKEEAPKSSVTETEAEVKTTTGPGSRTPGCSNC
# Assay: Rat CB2 radioligand binding assay ([3H]CP-55,940 competition)
# Condition summary: HEK293 membranes, 0.5 nM [3H]CP-55,940; read-out: rat CB2 Ki
pKi: −log10 of the molar value.
Items are presented alongside their recorded pKi.

| Compound structure | System | pKi |
| --- | --- | --- |
| COc1ccc(C(F)(F)F)cc1C(=O)/N=c1\c2c(n(C)n1C[C@H]1CCCO1)CCC2 | rat CB2 receptors (Rattus norvegicus, UniProt Q9QZN9) | 6.94 |
| COc1c(F)cc(F)cc1C(=O)/N=c1\cc(C(C)(C)C)n(C)n1C[C@H]1CCCO1 | rat CB2 receptors (Rattus norvegicus, UniProt Q9QZN9) | 6.84 |

* * *

# System: human CB2 receptors (Homo sapiens, UniProt P34972)
# Construct: expressed in transfected cells; host or cells: HEK293
# Assay: Human CB2 radioligand binding assay ([3H]CP-55,940 competition)
Items are presented alongside their recorded Ki.
Readout: Ki (nM)

| Compound structure | Readout | Reported value |
| --- | --- | --- |
| Cn1c(C(C)(C)C)c/c(=N\C(=O)c2cccc(S(F)(F)(F)(F)F)c2)n1C[C@H]1CCCO1 | Ki | 2.8 |
| Cn1c(C(C)(C)C)c/c(=N\C(=O)c2cc(C(F)(F)F)ccc2Oc2ccccc2)n1C[C@H]1CCCO1 | Ki | 107 |
| CC(C)=CCOc1ccc(C(F)(F)F)cc1C(=O)/N=c1\cc(C(C)(C)C)n(C)n1C[C@H]1CCCO1 | Ki | 17 |
| Cn1c(C(C)(C)C)c/c(=N\C(=O)c2cc(C#N)ccc2F)n1C[C@H]1CCCO1 | Ki | 41 |
| COc1ccc(C(F)(F)F)cc1C(=O)/N=c1\c2c(n(C)n1C[C@H]1CCCO1)CCC2 | Ki | 261 |
| COc1ccc(C(F)(F)F)cc1C(=O)/N=c1\cc(C(C)(C)C)ccn1C[C@H]1CCCO1 | Ki | 20 |
| COCCCOc1ccc(C(F)(F)F)cc1C(=O)/N=c1\cc(C(C)(C)C)n(C)n1C[C@H]1CCCO1 | Ki | 3.8 |
| Cn1c(C(C)(C)C)c/c(=N\C(=O)c2cc(C(F)(F)F)ccc2OCCC2(O)CCCC2)n1C[C@H]1CCCO1 | Ki | 2.6 |
| COCc1ccc(C(F)(F)F)cc1C(=O)/N=c1\cc(C(C)(C)C)n(C)n1C[C@H]1CCCO1 | Ki | 12 |
| COCCOc1ccc(Br)cc1C(=O)/N=c1\cc(C(C)(C)C)n(C)n1C[C@H]1CCCO1 | Ki | 31 |
| C/C=C/c1ccc(C(F)(F)F)cc1C(=O)/N=c1\cc(C(C)(C)C)n(C)n1C[C@H]1CCCO1 | Ki | 12 |
| Cn1c(C(C)(C)C)c/c(=N\C(=O)c2cc(C(F)(F)F)ccc2OCC(F)(F)F)n1C[C@H]1CCCO1 | Ki | 63 |
| COC(=O)C12CC3CC(CC(C(=O)/N=c4\cc(C(C)(C)C)n(C)n4C[C@H]4CCCO4)(C3)C1)C2 | Ki | 42 |
| CN(C)CCOc1ccc(C(F)(F)F)cc1C(=O)/N=c1\oc(C(C)(C)C)cn1C[C@H]1CCCO1 | Ki | 148 |
| Cn1c(C(C)(C)C)c/c(=N\C(=O)c2cc(C(F)(F)F)ccc2/C=C/C(C)(C)O)n1C[C@H]1CCCO1 | Ki | 3.2 |
| Cn1c(C(C)(C)C)c/c(=N\C(=O)c2cc(C(F)(F)F)ccc2NS(C)(=O)=O)n1C[C@H]1CCCO1 | Ki | 110 |
